I'd appreciate it if you could supply IC50 values for the items below.
- PROTOCOL DESCRIPTION: Evaluated for cytotoxicity using P388/VMDRC.04 cells (a subline of P388 murine leukemia cells expressing human recombinant human P-glycoprotein) in the absence of 10 nM vincristine

CCCC[C@H]1OC(=O)C[C@H](OCOC)[C@H](Cc2ccccc2)N(C)C(=O)COC(=O)[C@H]1C 11.7 µM
CCCCCCC[C@H]1OC(=O)C[C@@H](OCOC)[C@H](Cc2ccccc2)N(C)C(=O)COC(=O)[C@H]1C 2.3 µM
CCCCCCC[C@H]1OC(=O)C[C@@H](OCOC)[C@H](Cc2ccccc2)N(C)C(=O)[C@H](C(C)C)OC(=O)[C@H]1C 6.1 µM

Task: Value lookup for IC50; key = "CCCCCCC[C@H]1OC(=O)CC[C@H](Cc2ccccc2)N(C)C(=O)[C@H](C(C)C)OC(=O)[C@H]1C"
Output: 6 µM
